- test-description: plasma pharmacokinetics in patients (HPLC–MS/MS, non-compartmental analysis)
- Type: in vivo, human
- setup-conditions: human, plasma, oral, Dose-level 7: dacomitinib 30 mg (5/2) QD + PD-0325901 6 mg (5/2) BID; Cycle 1 Day 1; n = 3; read-out: Cmax PD-0325901, mean (CV%)
measured-parameter: Cmax (ng/mL)
Please give a number only; it is taken to be in ng/mL.

# input Reported Cmax for O=C(NOC[C@H](O)CO)c1ccc(F)c(F)c1Nc1ccc(I)cc1F : what is it?
# output 192

###

- test-description: plasma pharmacokinetics in patients (HPLC–MS/MS, non-compartmental analysis)
- Assay type: in vivo, human
- setup-conditions: human, plasma, oral, Dose-level 7: dacomitinib 30 mg (5/2) QD + PD-0325901 6 mg (5/2) BID; last day of concomitant use of both drugs; n = 2; read-out: AUC0-12h PD-0325901, mean (CV%)
measured-parameter: AUC(0-t) (ng·h/mL)
Write the number in ng·h/mL without appending the unit.

# input Please look up its AUC(0-t): O=C(NOC[C@H](O)CO)c1ccc(F)c(F)c1Nc1ccc(I)cc1F
# output 406
